These measurements were taken from the nanobody polyreactivity screen of Harvey et al. (2022).

# PROTOCOL_TEXT: yeast display, Sf9 membrane polyspecificity reagent, FACS + sequencing; frameworks hold sequencing errors
METRIC: polyreactivity (PSR sort gate)

Here is how some sequences turned out for polyreactivity (PSR sort gate).
- POLYMER_SEQUENCE: "QVQLVESGGGLVQAGGSLRLSCAASGSTFGWYVMGWYRQAPGKEREYVASISGSGGSTYYADSVKGRFTISRDNAKNTVYLQMNSLKPEDTAVYYCAAETGWYDDWSIYDYWGHGTQVTVSS"
  polyreactivity (PSR sort gate): "low polyreactivity"
- POLYMER_SEQUENCE: "QVQLLESGGGLVQAGGSLRLSCAASGLTFTAYVMGWYRHAPGKERELVAAISGGGSTYADSVKGRFTISGDNAKNTVSLQMNSLKPEDTAVYYCNADGWGDRFWSNFRFDYWGQGTQVTVSS"
  polyreactivity (PSR sort gate): "low polyreactivity"
- POLYMER_SEQUENCE: "QVQLVESGGGLVQAGGSLRLSCAASGRNFFRYAMGWYRQAPGKERELVAAISRSGGRTYYADSVKGRCTLSRDNAKNTVFLQMNSLNREDTAVYYCAVRYRQYSQTVASDYGYWGPGTQVTVSS"
  polyreactivity (PSR sort gate): "high polyreactivity"
- POLYMER_SEQUENCE: "QVQLQESGGGLVQAGGSLRLSCAASGSIFVSVTMGWYRQAPGKERELVASIGRGSTTNHADSVKGRFTISRDNAKNIVYLLMNSLKPEDTAVYSCAALESYGKYHGYWGQGTQVTVSS"
  polyreactivity (PSR sort gate): "low polyreactivity"

The recorded polyreactivity (PSR sort gate) for QVQLVESGGGLVQAGGSLRLSCAASGFIFGYNAMGWYRQAPGKERELVAAMDWSGTSTYYADSVKGRFTISRDNAKNTVYLQMNSLKPEDTAVYYCAKVSRRGIVGYWGQGTQVTVSS is high polyreactivity
